Where these numbers come from: patent US7276519B2

# Tested on: Rat2 fibroblasts stably transformed with v-Src/Hu c-Src fusion gene
# EXPERIMENTAL_PROTOCOL: Anchorage independent Src-transformed fibroblast proliferation assay
# Type: cell-based, rat
# APPLIED_CONDITIONS: Rattus norvegicus, Rat2, Table 3; read-out: Src Cells IC50 μM or % inhib at 10 μM (IC50 values)
Measured IC50 by item
Field: numeric (µM). Do not append units.

COc1cc(Nc2c(C#N)cnc3cc(-c4ccc(CN5CCOCC5)cn4)sc23)c(Cl)cc1Cl ... 0.474

Query string: # IC50 lookup, item COc1cc(Nc2c(C#N)cnc3cc(-c4ccc(CNCc5ccncc5)cc4)sc23)c(Cl)cc1Cl
Result string: 1.5

Query string: Look at this molecule and give its reported IC50. CCN(CC)Cc1ccc(-c2cc3ncc(C#N)c(Nc4cc(OC)c(Cl)cc4Cl)c3s2)nc1
Result string: 0.436

Query string: Entry COc1cc(Nc2c(C#N)cnc3c(-c4ccc(C=O)cc4)csc23)c(Cl)cc1Cl : reported IC50 = ?
Result string: 8.46

Query string: Field request: IC50 | item: COc1cc(Nc2c(C#N)cnc3cc(-c4ccc(CN5CCN(C)CC5)o4)sc23)c(Cl)cc1Cl
Result string: 2.8

Query string: What value of IC50 has been reported for the following molecule? CCCCNCc1ccc(-c2cc3ncc(C#N)c(Nc4cc(OC)c(Cl)cc4Cl)c3s2)cc1
Result string: 0.837
